# assayedTarget: T1, Cynomolgus EGFR extracellular domain (Cynomolgus monkey (Macaca fascicularis), UniProt P55245 25-645 (rhesus entry))
# T1 construct: Cloned without signal peptide; also called Cynomolgus rEGFR ECD; Cynomolgus EGFR ECD
# testDetails: ELISA on cynomolgus EGFR ECD (Example 10)

# binder, binding result
rows = [
    ("antibody 1347 (antibody, human IgG1, kappa, V domains shown, Chimeric IgG1 kappa) VH: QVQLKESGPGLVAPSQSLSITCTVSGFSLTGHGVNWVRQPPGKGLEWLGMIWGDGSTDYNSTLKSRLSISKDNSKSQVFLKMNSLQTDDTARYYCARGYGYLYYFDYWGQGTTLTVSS VL: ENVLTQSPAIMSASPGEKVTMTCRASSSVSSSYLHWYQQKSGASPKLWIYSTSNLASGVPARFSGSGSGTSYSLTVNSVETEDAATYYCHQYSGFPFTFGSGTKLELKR", "binds"),
    ("antibody 1308 (antibody, human IgG1, kappa, V domains shown, Chimeric IgG1 kappa) VH: EVQLQQSGAELVRPGSSVKISCKASGYAFSSYWMNWVRQRPGQGLEWIGQIYPGDGDTNYNGKFKGRATLTANKSSSTAYMQLSSLTSEDSAVYFCARRASSLYDVYPYYFDYWGQGTTLTVSS VL: DIQMTQTTSSLSASLGDRVTISCRASQDISNYLNWYQQKPDGTVKVLIYYTSRLHSGVPSRFSGSGSGTDYSLTISNLEQEDIATYFCQQGNTLPYTFGGGTKLEIKR", "binds"),
    ("antibody 1284 (antibody, human IgG1, kappa, V domains shown, Chimeric IgG1 kappa) VH: QVQLQQPGAELVKPGASVKLSCKASGYTFTSDWMHWMKQRPGQGLEWIGEINPSNGRSSYNEKFKSKATLTVDKSSSTAYMQLSSLTSEDSAVYYCARIGGIYVETYWGQGTLVTVSS VL: DIVLTQSPASLAVSLGQRATISCRASQSVSTSTYSYMHWYQQKSGQPPKLLIKYASNLESGVPARFSGSGSGTDFTLNIHPVEEEDTATYYCQHSWEIPWTFGGGTKLEIKR", "binds"),
]
